Target: KRAS G13D (Homo sapiens (Human), UniProt P01116+P62937, G13D)
Sequence (P01116 other isoform, or with tags, fused parts or gaps G13D): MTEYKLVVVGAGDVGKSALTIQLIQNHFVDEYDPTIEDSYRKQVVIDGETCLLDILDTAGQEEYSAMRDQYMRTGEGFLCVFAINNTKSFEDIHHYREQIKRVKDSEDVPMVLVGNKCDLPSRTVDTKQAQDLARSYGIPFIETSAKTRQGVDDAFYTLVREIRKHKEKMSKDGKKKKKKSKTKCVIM
Sequence (P62937 whole entry): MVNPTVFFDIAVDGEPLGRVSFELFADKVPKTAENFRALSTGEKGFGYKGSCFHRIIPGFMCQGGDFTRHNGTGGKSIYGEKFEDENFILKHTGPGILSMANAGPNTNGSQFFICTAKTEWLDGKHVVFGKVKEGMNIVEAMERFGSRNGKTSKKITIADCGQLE
Assay: Ras-Raf disruption/FRET/MOA assay (BRAF RBD, Cyclophilin A)
Format: biochemical
Details: read-out: KRAS G13D FRET data IC50

{"columns": ["smi", "IC50"],
 "data": [
  ["CCn1c(-c2cccnc2[C@H](C)OC)c2c3cc(ccc31)-c1cc(O)cc(c1)C[C@H](NC(=O)[C@H](C(C)C)N(C)C(=O)C13CC(CO1)C3)C(=O)N1CCC[C@H](N1)C(=O)OCC(C)(C)C2", "100 to 1000 nM"],
  ["CCn1c(-c2cccnc2[C@H](C)OC)c2c3cc(ccc31)-c1cc(O)cc(c1)C[C@H](NC(=O)[C@H](C(C)C)N(C)C(=O)N1CC(OC)C1)C(=O)N1CCC[C@H](N1)C(=O)OCC(C)(C)C2", "100 to 1000 nM"],
  ["CCn1c(-c2cccnc2[C@H](C)OC)c2c3cc(ccc31)-c1csc(n1)C[C@H](NC(=O)[C@H](C(C)C)N(C)C(=O)N1C[C@H]3CN(C)CC[C@H]31)C(=O)N1CCC[C@H](N1)C(=O)OCC(C)(C)C2", "1000 to 10000 nM"],
  ["CCn1c(-c2cccnc2[C@H](C)OC)c2c3cc(ccc31)-c1csc(n1)C[C@H](NC(=O)[C@H](C(C)C)N(C)C(=O)N1C[C@H](N)[C@@H](O)C1)C(=O)N1CCC[C@H](N1)C(=O)OCC(C)(C)C2", "100 to 1000 nM"],
  ["CCn1c(-c2cccnc2[C@H](C)OC)c2c3cc(ccc31)-c1cc(O)cc(c1)C[C@H](NC(=O)[C@H](C(C)C)N(C)C(=O)C1(CN)CC1)C(=O)N1CCC[C@H](N1)C(=O)OCC(C)(C)C2", "10 to 100 nM"],
  ["CCn1c(-c2cccnc2[C@H](C)OC)c2c3cc(ccc31)-c1cc(O)cc(c1)C[C@H](NC(=O)[C@H](C(C)C)N(C)C(=O)C13CCC(CC1)O3)C(=O)N1CCC[C@H](N1)C(=O)OCC(C)(C)C2", "100 to 1000 nM"],
  ["CCn1c(-c2cccnc2[C@H](C)OC)c2c3cc(ccc31)-c1cc(O)cc(c1)C[C@H](NC(=O)[C@H](C(C)C)N(C)C(=O)[C@H]1CCCC[C@H]1N)C(=O)N1CCC[C@H](N1)C(=O)OCC(C)(C)C2", "10 to 100 nM"],
  ["CCn1c(-c2cccnc2[C@H](C)OC)c2c3cc(ccc31)-c1csc(n1)C[C@H](NC(=O)[C@H](C(C)C)N(C)C(=O)[C@H]1CCN(CCO)C1)C(=O)N1CCC[C@H](N1)C(=O)OCC(C)(C)C2", "1000 to 10000 nM"],
  ["CCn1c(-c2cccnc2[C@H](C)OC)c2c3cc(ccc31)-c1cc(O)cc(c1)C[C@H](NC(=O)[C@H](C(C)C)N(C)C(=O)[C@H]1CCN(C(=O)[C@@H](C)N(C)C)C1)C(=O)N1CCC[C@H](N1)C(=O)OCC(C)(C)C2", "10 to 100 nM"]
]}
